- assay: inhibition of 3D7 malaria parasite growth – strain 3D7 (AID 2306);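 further: 0% = DMSO wells and 100% = chloroquine plus artemisinin control wells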
- condition-info: P. falciparum 3D7 erythrocytic growth, LDH absorbance, 72 h; at 2 µM; active compounds read high
reported-endpoint: growth inhibition (%)
Numbers only, in %.

Some entries whose results are on file:
[[record]]
compound = "COc1cc(OC)cc(-c2nn(-c3ccc([N+](=O)[O-])cc3C#N)c(=S)n2Cc2ccco2)c1"
endpoint_result = 100

[[record]]
compound = "N#Cc1ccccc1S(=O)(=O)N1CCCC(CNC(=O)[C@H](CC2CCCCC2)NC(=O)c2cc3ccccc3s2)C1 (stereo not given in full)"
endpoint_result = 97

[[record]]
compound = "C=C[C@H]1CN(CCCCCCC)CC[C@H]1CC(=O)Nc1cnnc2ccc(OC)cc12"
endpoint_result = 101


Please report growth inhibition for every entry that follows.
1. FC(F)(F)c1ccc2c(NCCc3ccccc3)ccnc2c1
2. O=C(NC1CCN(Cc2ccccc2)CC1)c1ccc(-c2nc3cc(Cl)c(F)cc3[nH]2)s1

// result
87
101
